tested_on: purified recombinant Plasmodium falciparum methylerythritol cytidyltransferase (PfIspD) enzyme (Plasmodium falciparum, UniProt Q8I273)
Sequence (Q8I273 entry or part of it): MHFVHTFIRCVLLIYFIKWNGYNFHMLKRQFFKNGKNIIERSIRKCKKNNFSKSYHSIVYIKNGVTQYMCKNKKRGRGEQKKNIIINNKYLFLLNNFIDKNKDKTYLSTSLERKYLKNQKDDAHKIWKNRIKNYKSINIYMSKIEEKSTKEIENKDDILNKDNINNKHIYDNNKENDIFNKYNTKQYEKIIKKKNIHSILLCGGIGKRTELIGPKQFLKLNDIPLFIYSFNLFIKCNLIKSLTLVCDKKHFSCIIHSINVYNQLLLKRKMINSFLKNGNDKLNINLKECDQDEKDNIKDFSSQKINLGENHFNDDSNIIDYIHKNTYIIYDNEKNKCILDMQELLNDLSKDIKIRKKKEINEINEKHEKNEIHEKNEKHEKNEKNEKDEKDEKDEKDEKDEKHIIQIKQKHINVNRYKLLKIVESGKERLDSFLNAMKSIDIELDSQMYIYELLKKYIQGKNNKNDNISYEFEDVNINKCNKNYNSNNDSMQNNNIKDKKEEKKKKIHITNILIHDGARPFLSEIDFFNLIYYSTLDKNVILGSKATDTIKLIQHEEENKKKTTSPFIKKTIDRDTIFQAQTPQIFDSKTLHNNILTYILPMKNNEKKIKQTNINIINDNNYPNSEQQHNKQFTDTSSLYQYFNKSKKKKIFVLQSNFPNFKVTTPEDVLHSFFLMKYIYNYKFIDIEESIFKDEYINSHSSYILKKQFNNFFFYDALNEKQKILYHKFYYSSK
method: biochemical
test_settings: nonlinear regression
Procedure: Compounds listed in Table 1 were tested for activity against purified recombinant Plasmodium falciparum methylerythritol cytidyltransferase (PfIspD) enzyme. […] Each compound was evaluated for enzymatic inhibition over several concentrations. Nonlinear regression analysis (GraphPad Prism) was used to determine the half-maximal inhibitory concentration (IC50) for each compound.
measured_property: log10(IC50) (log10 of the value in µM)

>>> recorded_measurement("COc1ccc(S(=O)(=O)N2CCCCC2)cc1-n1sc2ccccc2c1=O [Compound 25]")
-0.09
>>> recorded_measurement("Cc1nnsc1C(=O)Nc1cc(S(=O)(=O)N2CCCCC2)ccc1O [Compound 19]")
1.77
>>> recorded_measurement("O=c1c2ccccc2sn1-c1cc(S(=O)(=O)N2CCOCC2)ccc1O [Compound 37]")
-0.15
>>> recorded_measurement("O=c1c2ccccc2sn1Cc1ccccc1 [Compound 48, 2-benzylbenzo[d]isothiazol-2(3H)-one]")
0.39
>>> recorded_measurement("COc1ccc(S(=O)(=O)N2CCNCC2)cc1-n1sc2ccccc2c1=O [Compound 36]")
0.06
>>> recorded_measurement("COc1ccc(S(=O)(=O)N2CCOCC2)cc1-n1sc2ccccc2c1=O [Compound 24]")
0.03
>>> recorded_measurement("Cc1ccc(-n2sc3ccccc3c2=O)cc1S(=O)(=O)N1CCOCC1 [Compound 3]")
-0.30

----------
Test system: cultured Plasmodium falciparum parasite strain 3D7
method: Antimalarial efficacy, parasite growth inhibition by Sybr Green staining
Assay type: cell-based
test_settings: P. falciparum strain 3D7
measured_property: log10 of EC50 (log10 of the value in µM)

>>> recorded_measurement("O=c1c2ccccc2sn1-c1ccc(S(=O)(=O)N2CCOCC2)cc1")
1.32
>>> recorded_measurement("O=c1c2ccccc2sn1-c1cc(S(=O)(=O)N2CCCOCC2)ccc1O")
1.16
>>> recorded_measurement("COc1ccc(S(=O)(=O)N2CCN(C)CC2)cc1-n1sc2ccccc2c1=O")
0.39
>>> recorded_measurement("O=c1c2ccccc2sn1-c1cccc(-c2ccsc2)c1")
0.46
>>> recorded_measurement("COc1ccc(S(=O)(=O)N2CCNCC2)cc1-n1sc2ccccc2c1=O")
-0.01

----------
Test system: cultured Plasmodium falciparum parasite strain 3D7
method: Antimalarial efficacy, parasite growth inhibition by Sybr Green staining
Assay type: cell-based
test_settings: P. falciparum strain 3D7
pEC50: −log10 of the molar value.
measured_property: pEC50

>>> recorded_measurement("O=c1c2ccccc2sn1-c1cc(S(=O)(=O)N2CCOCC2)ccc1O [Compound 37]")
5.12
>>> recorded_measurement("COc1ccc(S(=O)(=O)N2CCC(F)CC2)cc1-n1sc2ccccc2c1=O [Compound 26]")
5.21
>>> recorded_measurement("CSc1ccccc1C(=O)Nc1cccc(S(=O)(=O)N2CCOCC2)c1 [Compound 11]")
4.08
>>> recorded_measurement("COc1ccc(-c2cccc(-n3sc4ccccc4c3=O)c2)cc1 [Compound 41]")
6.11
>>> recorded_measurement("O=c1[nH]sc2ncccc12 [Compound 50, Isothiazolo[5,4-b]pyridin-3(2H)-one]")
3.80
>>> recorded_measurement("Cc1ccc(-n2sc3ccccc3c2=O)cc1S(=O)(=O)N1CCOCC1 [Compound 3]")
5.30
>>> recorded_measurement("O=c1c2ccccc2sn1-c1ccccn1 [Compound 47]")
4.15
>>> recorded_measurement("O=c1c2ccccc2sn1-c1cc(S(=O)(=O)N2CCCCC2)ccc1O [Compound 39]")
5.04
>>> recorded_measurement("COC(=O)c1cccc(-n2sc3ccccc3c2=O)c1 [Compound 45]")
4.93

----------
tested_on: purified recombinant Plasmodium falciparum methylerythritol cytidyltransferase (PfIspD) enzyme (Plasmodium falciparum)
method: biochemical
test_settings: nonlinear regression
Procedure: Compounds listed in Table 1 were tested for activity against purified recombinant Plasmodium falciparum methylerythritol cytidyltransferase (PfIspD) enzyme. […] Each compound was evaluated for enzymatic inhibition over several concentrations. Nonlinear regression analysis (GraphPad Prism) was used to determine the half-maximal inhibitory concentration (IC50) for each compound.
measured_property: IC50 (nM)

>>> recorded_measurement("COc1ccc(S(=O)(=O)N2CCN(C)CC2)cc1-n1sc2ccccc2c1=O")
1950
>>> recorded_measurement("O=c1c2cccnc2sn1Cc1ccccc1")
1520
>>> recorded_measurement("O=c1c2ccccc2sn1-c1cccc(S(=O)(=O)N2CCOCC2)c1")
656
>>> recorded_measurement("O=c1c2ccccc2sn1-c1cc(S(=O)(=O)N2CCOCC2)ccc1N1CCCC1")
7260
>>> recorded_measurement("COc1ccc(S(=O)(=O)N2CCC(F)CC2)cc1-n1sc2ccccc2c1=O")
866
>>> recorded_measurement("O=c1c2ccccc2sn1-c1cccc(-c2ccsc2)c1")
290
>>> recorded_measurement("O=c1c2ccccc2sn1-c1ccc(S(=O)(=O)N2CCOCC2)cc1")
30900
>>> recorded_measurement("O=C(O)c1cccc(-n2sc3ccccc3c2=O)c1")
480
>>> recorded_measurement("O=c1c2ccccc2sn1-c1cc(S(=O)(=O)N2CCC(F)CC2)ccc1O")
13200

----------
Test system: cultured Plasmodium falciparum parasite strain 3D7
method: Antimalarial efficacy, parasite growth inhibition by Sybr Green staining
Assay type: cell-based
test_settings: P. falciparum strain 3D7
Note to self: use t only for EC50 readings below 9 µM; a reading exactly at 9 µM still gets f.

>>> discrete_label("COc1ccc(Cn2sc3ccccc3c2=O)cc1 [Compound 51]")
"f"
>>> discrete_label("COc1ccc(S(=O)(=O)N2CCCCC2)cc1-n1sc2ccccc2c1=O [Compound 25]")
"f"
>>> discrete_label("COc1ccc(S(=O)(=O)N2CCOCC2)cc1-n1sc2ccccc2c1=O [Compound 24]")
"t"
>>> discrete_label("O=c1c2ccccc2sn1-c1cccc(-c2ccc(C(F)(F)F)cc2)c1 [Compound 44]")
"t"
>>> discrete_label("O=c1c2ccccc2sn1-c1cc(S(=O)(=O)N2CCC(F)CC2)ccc1O [Compound 38]")
"f"
>>> discrete_label("O=c1c2ccccc2sn1-c1cccc(S(=O)(=O)N2CCOCC2)c1 [Compound 10]")
"t"
>>> discrete_label("Cc1nnsc1C(=O)Nc1cc(S(=O)(=O)N2CCCCC2)ccc1O [Compound 19]")
"f"
>>> discrete_label("O=c1c2ccccc2sn1-c1cccc(-c2ccc(Cl)cc2)c1 [Compound 43]")
"t"
>>> discrete_label("O=C(O)c1cccc(-n2sc3ccccc3c2=O)c1 [Compound 46]")
"f"
>>> discrete_label("O=c1c2ccccc2sn1Cc1ccc(Cl)cc1 [Compound 49]")
"f"
>>> discrete_label("O=c1c2ccccc2sn1-c1cc(S(=O)(=O)N2CCOCC2)ccc1N1CCCC1 [Compound 2]")
"f"

Where these numbers come from: patent US20170136030A1
